Target: Toll-like receptor 7 (Homo sapiens, UniProt Q9NYK1)
Sequence (Q9NYK1 whole entry): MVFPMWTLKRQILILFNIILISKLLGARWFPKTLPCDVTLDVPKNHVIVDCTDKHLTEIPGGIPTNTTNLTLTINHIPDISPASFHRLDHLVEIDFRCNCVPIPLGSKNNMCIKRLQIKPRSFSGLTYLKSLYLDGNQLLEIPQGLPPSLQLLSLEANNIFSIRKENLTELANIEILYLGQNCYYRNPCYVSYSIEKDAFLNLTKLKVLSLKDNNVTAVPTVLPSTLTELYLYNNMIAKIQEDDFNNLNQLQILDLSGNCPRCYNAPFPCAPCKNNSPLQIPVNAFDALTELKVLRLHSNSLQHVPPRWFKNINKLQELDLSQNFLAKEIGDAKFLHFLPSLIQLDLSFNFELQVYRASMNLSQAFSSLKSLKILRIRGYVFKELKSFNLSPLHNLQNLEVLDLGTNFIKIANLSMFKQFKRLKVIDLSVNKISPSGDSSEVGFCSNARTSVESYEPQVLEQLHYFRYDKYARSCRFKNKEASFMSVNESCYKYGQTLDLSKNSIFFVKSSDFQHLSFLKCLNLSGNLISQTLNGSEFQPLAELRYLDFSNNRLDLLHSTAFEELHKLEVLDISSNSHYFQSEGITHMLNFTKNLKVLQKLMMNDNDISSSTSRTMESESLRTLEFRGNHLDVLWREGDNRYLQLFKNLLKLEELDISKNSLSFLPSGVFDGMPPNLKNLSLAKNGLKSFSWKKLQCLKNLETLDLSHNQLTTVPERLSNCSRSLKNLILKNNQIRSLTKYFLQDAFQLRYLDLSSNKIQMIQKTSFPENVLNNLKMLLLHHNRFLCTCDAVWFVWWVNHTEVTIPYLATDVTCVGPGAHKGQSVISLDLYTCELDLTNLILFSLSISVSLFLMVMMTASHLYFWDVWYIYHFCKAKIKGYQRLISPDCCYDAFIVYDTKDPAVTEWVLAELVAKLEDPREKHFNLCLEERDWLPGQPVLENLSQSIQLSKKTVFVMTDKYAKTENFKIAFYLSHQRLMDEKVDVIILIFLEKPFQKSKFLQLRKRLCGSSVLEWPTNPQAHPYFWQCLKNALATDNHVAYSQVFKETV
Experiment: Antagonist activity at human TLR7 expressed in HEK293 cells assessed as inhibition of R848-induced NF-kappaB activation-mediated SEAP production after 24 hrs by Quanti-blue-based assay
Property label: log10 of IC50 (log10 of the value in µM)
Log scale reminder: IC50 in µM, then log10 taken.

So what does the record say about log10 of IC50 for O=C(NNC(=O)c1csc(-c2cccc(Cl)c2)n1)c1ccccn1 ?
0.00

Endpoint output: log10 of IC50 of Cc1nc(C(=O)NNC(=O)c2cccc(Cl)c2)cs1 . Value?
1.78

Which value of log10 of IC50 has been reported for COc1ccc(-c2nc(C(=O)NNC(=O)c3ccccn3)cs2)cc1 in the records?
0.49

So what does the record say about log10 of IC50 for O=C(NNC(=O)c1csc(-c2ccc(F)cc2)n1)c1ccccn1 ?
0.64

Sample O=C(NNC(=O)c1csc(-c2cccc(F)c2)n1)c1ccccn1 — what was its log10 of IC50?
0.41

Need log10 of IC50 of O=C(NNC(=O)c1ccccn1)c1ccc(C(F)(F)F)cc1 , thanks.
1.23

Which log10 of IC50 is reported for this molecule? O=C(NNC(=O)c1csc(-c2cccc(C(F)(F)F)c2)n1)c1ccccn1
0.01

Bench note: what log10 of IC50 did CCc1ccc(-c2nc(C(=O)NNC(=O)c3ccccn3)cs2)cc1 show?
0.38

What log10 of IC50 value was documented for this molecule, O=C(NNC(=O)c1ncccc1O)c1cccc(C(F)(F)F)c1 ?
1.15

Any idea what log10 of IC50 was measured for CN(C)c1ccc(-c2nc(C(=O)NNC(=O)c3ccccn3)cs2)cc1 ?
0.28

Query: log10 of IC50; subject: O=C(NNC(=O)c1csc(-c2cccc(Br)c2)n1)c1ccccn1
-0.05
